Molecular target: Estrogen receptor (Rattus norvegicus) (UniProt P06211)
Sequence (P06211 whole entry, looked up): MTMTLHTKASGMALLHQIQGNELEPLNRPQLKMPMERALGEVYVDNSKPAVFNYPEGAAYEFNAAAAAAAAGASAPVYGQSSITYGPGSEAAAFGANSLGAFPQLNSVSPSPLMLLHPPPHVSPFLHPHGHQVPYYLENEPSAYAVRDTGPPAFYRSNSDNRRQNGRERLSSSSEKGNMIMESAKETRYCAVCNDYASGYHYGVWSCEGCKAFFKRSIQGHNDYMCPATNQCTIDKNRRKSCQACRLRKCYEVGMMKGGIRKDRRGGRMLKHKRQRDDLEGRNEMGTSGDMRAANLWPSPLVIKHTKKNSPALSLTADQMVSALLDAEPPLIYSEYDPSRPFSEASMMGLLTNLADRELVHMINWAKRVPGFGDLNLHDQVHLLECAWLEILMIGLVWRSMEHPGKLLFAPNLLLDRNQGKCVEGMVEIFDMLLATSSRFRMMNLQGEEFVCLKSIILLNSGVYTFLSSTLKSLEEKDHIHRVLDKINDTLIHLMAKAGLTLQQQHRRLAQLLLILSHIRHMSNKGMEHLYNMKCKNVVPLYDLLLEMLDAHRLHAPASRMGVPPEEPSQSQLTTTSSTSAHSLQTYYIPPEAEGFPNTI
Assay: DSSTox (KIERBL) EPA Estrogen Receptor Ki Binding Study (Laws et al.) Database
Conditions: Rat uterine cytosol ER, 3H-estradiol competitive binding; TestedRange_microM: 2.5-7.5
Measured quantity: Potency

Incoming: Return reported Potency for target or system Estrogen receptor (Rattus norvegicus) (UniProt P06211), item Oc1ccc(C(c2ccc(O)cc2)(C(F)(F)F)C(F)(F)F)cc1 .
Outgoing: 1900 nM

* * *

Molecular target: Estrogen receptor (Rattus norvegicus)
Experiment: DSSTox (KIERBL) EPA Estrogen Receptor Ki Binding Study (Laws et al.) Database
Details: Rat uterine cytosol ER, 3H-estradiol competitive binding
Calls of active or inactive are those of the source.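 Rule for the calls: active = chemicals shown by follow-up kinetic tests to compete for rat estrogen receptor sites, with a measured inhibition constant; inconclusive = some binding seen but constant unmeasurable owing to poor solubility; inactive = no binding up to top dose, or binding unconfirmed.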
Measured quantity: outcome

Recorded outcome, per entry:
Compound	Test system	outcome
O=C(O)CCCCC(=O)O	Estrogen receptor (Rattus norvegicus)	inactive; none
CC/C=C\CCOC(=O)c1ccccc1O	Estrogen receptor (Rattus norvegicus)	inactive; incomplete
O=C(O[C@@H](C(=O)O)[C@@H](OC(=O)c1ccccc1)C(=O)O)c1ccccc1	Estrogen receptor (Rattus norvegicus)	inactive; none
CCCCCCOC(=O)c1ccccc1C(=O)OCCCCCC	Estrogen receptor (Rattus norvegicus)	inactive; none

Incoming: Answer with reported outcome of O=C(O)c1cc(O)c2ccccc2c1O
Outgoing: inactive; incomplete

Incoming: Answer with reported outcome of Cc1cc(C(C)(C)C)c(O)c(C)c1Cn1c(=O)n(Cc2c(C)cc(C(C)(C)C)c(O)c2C)c(=O)n(Cc2c(C)cc(C(C)(C)C)c(O)c2C)c1=O
Outgoing: inactive; none

Incoming: Answer with reported outcome of CCCCCCC(=O)O
Outgoing: inactive; none

Incoming: Answer with reported outcome of CCCCCCCCCCCCCCCCCCOC(=O)CCc1cc(C(C)(C)C)c(O)c(C(C)(C)C)c1
Outgoing: inactive; none

Incoming: Answer with reported outcome of OCC1CC2C=CC1C2 (stereo not drawn)
Outgoing: inactive; none

Incoming: Answer with reported outcome of O=S(=O)(O)c1ccccc1Nc1ccc(C(=C2C=CC(=Nc3ccccc3)C=C2)c2ccc(Nc3ccccc3)cc2)cc1
Outgoing: inactive; none

Incoming: Answer with reported outcome of O=CCCl
Outgoing: inactive; none

Incoming: Answer with reported outcome of CCCCCN(CCCCC)CCCCC
Outgoing: inactive; none

Incoming: Answer with reported outcome of O=C=NCc1cccc(CN=C=O)c1
Outgoing: inactive; none

* * *

Target: Estrogen receptor (Rattus norvegicus) (UniProt P06211)
Assay: DSSTox (KIERBL) EPA Estrogen Receptor Ki Binding Study (Laws et al.) Database
Settings: Rat uterine cytosol ER, 3H-estradiol competitive binding
Active and inactive are the calls of the source.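 How the source made its calls: active means chemicals shown by follow-up kinetic tests to compete for rat estrogen receptor sites, with a measured inhibition constant; inconclusive means some binding seen but constant unmeasurable owing to poor solubility; inactive means no binding up to top dose, or binding unconfirmed.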
Measured quantity: outcome

Recorded outcome, per entry:
Compound	Measured quantity	Result
CCCCCCCCCCCCCCCCCCN	outcome	inactive; none
OCCS	outcome	inactive; none
Cc1cscn1	outcome	inactive; none
CC(C)(c1cc(Br)c(OCCO)c(Br)c1)c1cc(Br)c(OCCO)c(Br)c1	outcome	inactive; none

Incoming: Answer with reported outcome of C=CC(=O)OCC(C)O (stereo unspecified)
Outgoing: inactive; none

* * *

Biological target: Estrogen receptor (Rattus norvegicus)
Experiment: DSSTox (KIERBL) EPA Estrogen Receptor Ki Binding Study (Laws et al.) Database
Settings: Rat uterine cytosol ER, 3H-estradiol competitive binding; TestedRange_microM: 0.6-1.2
Measured quantity: Potency

Incoming: Return reported Potency for target or system Estrogen receptor (Rattus norvegicus), item CC(C)CCCCCCc1ccc(O)cc1 .
Outgoing: 600 nM
